# Measurement description: Inhibition of NF-kappaB transfected in LPS-stimulated mouse RAW264.7 cells
# Format: cell-based
Metric: IC50 (µM)

{"columns": ["Smi", "Metric", "Value observed"],
 "data": [
  ["O=C/C=C/c1ccccc1", "IC50", 43],
  ["COc1ccccc1/C=C/C=O", "IC50", 31]
]}

Data origin, for the record: ChEMBL document CHEMBL1152242
